# stated-conditions: in n-pentanol, 303.15 K

{"smiles-str": "C=CC1=C(C(=O)O)N2C(=O)[C@@H](NC(=O)/C(=N\\OCC(=O)O)c3csc(N)n3)[C@H]2SC1.O.O.O", "solubility (mole fraction)": 0.00136}

---

# stated-conditions: in isopropanol, 298.15 K
readout-kind: solubility (mole fraction)

{"smiles-str": "C=CC1=C(C(=O)O)N2C(=O)[C@@H](NC(=O)/C(=N\\OCC(=O)O)c3csc(N)n3)[C@H]2SC1.O.O.O", "readout-kind": "solubility (mole fraction)", "recorded-value": 0.00178}

---

# stated-conditions: in n-pentanol, 293.15 K

{"smiles-str": "C=CC1=C(C(=O)O)N2C(=O)[C@@H](NC(=O)/C(=N\\OCC(=O)O)c3csc(N)n3)[C@H]2SC1.O.O.O", "solubility (mole fraction)": 0.000779}
